Molecular target: DPP1 (Homo sapiens (Human))
Sequence (P53634 25-463): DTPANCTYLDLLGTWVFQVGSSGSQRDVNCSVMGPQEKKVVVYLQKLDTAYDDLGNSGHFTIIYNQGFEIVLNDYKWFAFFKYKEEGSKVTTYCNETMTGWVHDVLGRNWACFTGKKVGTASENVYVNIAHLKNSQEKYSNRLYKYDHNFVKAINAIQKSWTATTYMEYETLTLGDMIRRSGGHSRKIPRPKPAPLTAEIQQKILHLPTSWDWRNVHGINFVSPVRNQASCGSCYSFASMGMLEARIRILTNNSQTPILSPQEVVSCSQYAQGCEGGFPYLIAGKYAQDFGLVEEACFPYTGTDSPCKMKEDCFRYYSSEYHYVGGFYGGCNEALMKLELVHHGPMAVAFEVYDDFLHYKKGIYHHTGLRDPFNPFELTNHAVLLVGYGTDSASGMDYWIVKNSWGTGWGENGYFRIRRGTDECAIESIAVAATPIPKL
Assay: DPP1 activity inhibition test on U937 cells
Type: cell-based
Conditions: U-937, 5 nM compound, substrate h-Gly-phe-AFC
testReadout: inhibition at 0.005 µM

Known inhibition at 0.005 µM results, listed for orientation:
{"compound": "C[C@@H](O)Cn1c(=O)oc2ccc(-c3ccc(C[C@@H](C#N)NC(=O)[C@@H]4CNCCCO4)cc3)cc21", "testReadout": "inhibition at 0.005 µM", "measuredValue": "< 30%"}
{"compound": "C[C@H](O)Cn1c(=O)oc2ccc(-c3ccc(C[C@@H](C#N)NC(=O)[C@@H]4CNCCCO4)cc3)cc21", "testReadout": "inhibition at 0.005 µM", "measuredValue": "< 30%"}
{"compound": "N#C[C@H](Cc1ccc(-c2ccc3c(c2)C2(CCN(C4COC4)CC2)OC3=O)cc1F)NC(=O)[C@@H]1CNCCCO1", "testReadout": "inhibition at 0.005 µM", "measuredValue": "30 to 75%"}

Each compound below has a reported value. Please supply its inhibition at 0.005 µM.
1. N#C[C@H](Cc1ccc(-c2ccc3c(c2)C2(CN(C4COC4)C2)OC3=O)cc1F)NC(=O)[C@@H]1CNCCCO1
2. CN1CCC2(CC1)OCc1cnc(-c3ccc(C[C@@H](C#N)NC(=O)[C@@H]4CNCCCO4)cc3)cc12
3. CN1CCC2(CC1)COc1ccc(-c3ccc(C[C@@H](C#N)NC(=O)[C@@H]4CNCCCO4)c(F)c3)cc12
4. CN1CCC2(C1)OCc1ccc(-c3ccc(C[C@@H](C#N)NC(=O)[C@@H]4CNCCCO4)cc3)cc12 (stereo partly drawn)
5. CN1CCC2(C=Cc3ccc(-c4ccc(C[C@@H](C#N)NC(=O)[C@@H]5CNCCCO5)c(F)c4)cc32)CC1

-- reply
1: < 30%; 2: < 30%; 3: < 30%; 4: < 30%; 5: < 30%

Each compound below has a reported value. Please supply its inhibition at 0.005 µM.
1. Cn1cnc(-n2c(=O)oc3ccc(-c4ccc(C[C@@H](C#N)NC(=O)[C@@H]5CNCCCO5)c(F)c4)cc32)c1
2. N#C[C@H](Cc1ccc(-c2cc3c(cn2)C(=O)CC3)cc1F)NC(=O)[C@@H]1CNCCCO1
3. CN1CC(n2c(=O)sc3ccc(-c4ccc(C[C@@H](C#N)NC(=O)[C@@H]5CNCCCO5)c(F)c4)cc32)C1
4. CC1OC(=O)c2ccc(-c3ccc(C[C@@H](C#N)NC(=O)[C@@H]4CNCCCO4)c(F)c3)cc21 (stereo partly drawn)

-- reply
["< 30%", "< 30%", "30 to 75%", "30 to 75%"]

Each compound below has a reported value. Please supply its inhibition at 0.005 µM.
1. N#C[C@H](Cc1ccc(-c2ccc3oc(=O)n(C4CCN(C5COC5)CC4)c3c2)cc1F)NC(=O)[C@@H]1CNCCCO1
2. CN1CCC2(CC1)OC(=O)c1cnc(-c3ccc(C[C@@H](C#N)NC(=O)[C@@H]4CNCCCO4)cc3)cc12
3. N#C[C@H](Cc1ccc(-c2ccc3oc(=O)n(CF)c3c2)cc1)NC(=O)[C@@H]1CNCCCO1
4. N#C[C@H](Cc1ccc(-c2ccc3c(c2)CCC3=O)cc1F)NC(=O)[C@@H]1CNCCCO1
5. Cn1cnc(-n2c(=O)oc3ccc(-c4ccc(C[C@@H](C#N)NC(=O)[C@@H]5CNCCCO5)c(F)c4)cc32)n1
6. N#C[C@H](Cc1ccc(-c2ccc3oc(=O)n(C4COC4)c3c2)cc1)NC(=O)[C@@H]1CNCCCO1
7. CN1CCN(S(=O)(=O)c2ccc(-c3ccc(C[C@@H](C#N)NC(=O)[C@@H]4CNCCCO4)cc3)cc2)CC1

-- reply
1. < 30%
2. < 30%
3. 30 to 75%
4. 30 to 75%
5. < 30%
6. < 30%
7. < 30%

Each compound below has a reported value. Please supply its inhibition at 0.005 µM.
1. N#C[C@H](Cc1ccc(-c2ccc3c(n2)C2(CCN(C4COC4)CC2)OC3)cc1)NC(=O)[C@@H]1CNCCCO1
2. N#C[C@H](Cc1ccc(-c2ccc3c(c2)N2CC(=O)N=C2O3)cc1F)NC(=O)[C@@H]1CNCCCO1

-- reply
1: < 30%; 2: < 30%

Each compound below has a reported value. Please supply its inhibition at 0.005 µM.
1. Cn1c(=O)oc2ccc(-c3ccc(C[C@@H](C#N)NC(=O)[C@@H]4CNCC5(CC5)CO4)nn3)cc21
2. CN1CCC(n2c(=O)oc3ccc(-c4ccc(C[C@@H](C#N)NC(=O)[C@@H]5CNCCCO5)c(F)c4)cc32)C(F)(F)C1 (stereo partly drawn)
3. N#C[C@H](Cc1ccc(-c2cc3c(s2)CNC3=O)cc1)NC(=O)[C@@H]1CNCCCO1

-- reply
["30 to 75%", "< 30%", "< 30%"]

Each compound below has a reported value. Please supply its inhibition at 0.005 µM.
1. Cn1c(=O)oc2ccc(-c3ccc(C[C@@H](C#N)NC(=O)[C@@H]4CNCCCO4)cc3)cc21 [AZD7986, Brensocatib, reference compound]
2. CN1CCC2(CC1)OCc1ccc(-c3ccc(C[C@@H](C#N)NC(=O)[C@@H]4CNCCCO4)c(F)c3)cc12
3. Cn1c(=O)oc2ccc(-c3ccc(C[C@@H](C#N)NC(=O)[C@@H]4CNCC5(CC5)CO4)c(F)c3)cc21

-- reply
1: 30 to 75%; 2: < 30%; 3: 30 to 75%
